tested_target: T1, mouse GPVI extracellular domain fused at its C-terminus to human IgG1 Fc (GPVI-Fc) (mouse; human)
T1 construct: also called mGPVI; mouse GPVI-Fc
T1 sequence (chain, as listed by the source limits assumed): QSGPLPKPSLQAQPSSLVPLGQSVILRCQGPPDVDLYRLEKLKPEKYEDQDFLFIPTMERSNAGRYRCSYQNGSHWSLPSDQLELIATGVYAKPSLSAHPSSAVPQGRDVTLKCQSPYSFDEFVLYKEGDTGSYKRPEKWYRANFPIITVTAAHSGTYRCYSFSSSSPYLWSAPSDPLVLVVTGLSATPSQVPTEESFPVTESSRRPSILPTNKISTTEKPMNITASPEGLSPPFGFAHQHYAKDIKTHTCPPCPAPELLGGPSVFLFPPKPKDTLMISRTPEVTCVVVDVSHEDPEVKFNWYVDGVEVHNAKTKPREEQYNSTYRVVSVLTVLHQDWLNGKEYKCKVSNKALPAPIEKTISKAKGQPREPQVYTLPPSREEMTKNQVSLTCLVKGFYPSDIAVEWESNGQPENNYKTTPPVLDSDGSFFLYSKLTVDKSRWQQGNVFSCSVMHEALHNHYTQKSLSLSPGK
protocol_details: Competition ELISA (MSD): mouse GPVI-Fc preincubated with Fab, then on coated VitroCol (competitor)
Overview of reported IC50 across a group of binders:

>  <binder>
Fab #3 comprising a modified heavy chain constant region (Fab, V domains shown, Human Fab from the Ylanthia library; produced in HKB11 cells; also called Fab #3 mod; HC) VH: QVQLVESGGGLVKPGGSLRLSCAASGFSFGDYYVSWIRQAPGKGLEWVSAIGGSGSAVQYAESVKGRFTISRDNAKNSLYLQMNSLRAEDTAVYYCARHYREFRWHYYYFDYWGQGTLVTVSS VL: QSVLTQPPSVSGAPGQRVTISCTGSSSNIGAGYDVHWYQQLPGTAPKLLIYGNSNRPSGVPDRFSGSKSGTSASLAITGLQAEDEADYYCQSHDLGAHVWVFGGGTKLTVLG

>  <measurement_units>
nM

>  <IC50>
3.3

$$$$
>  <binder>
Fab #1 comprising a modified heavy chain constant region (Fab, V domains shown, Human Fab from the Ylanthia library; produced in HKB11 cells; also called Fab #1 mod; HC) VH: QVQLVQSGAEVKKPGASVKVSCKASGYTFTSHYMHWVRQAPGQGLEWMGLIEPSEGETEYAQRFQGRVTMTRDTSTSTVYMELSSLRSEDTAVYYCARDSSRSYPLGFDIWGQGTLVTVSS VL: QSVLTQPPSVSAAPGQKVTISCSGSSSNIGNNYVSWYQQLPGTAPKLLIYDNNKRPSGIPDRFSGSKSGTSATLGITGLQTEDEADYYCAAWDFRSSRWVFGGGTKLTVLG

>  <measurement_units>
nM

>  <IC50>
9.1

$$$$
>  <binder>
Fab #4 comprising a modified heavy chain constant region (Fab, V domains shown, Human Fab from the Ylanthia library; produced in HKB11 cells; also called Fab #4 mod; HC) VH: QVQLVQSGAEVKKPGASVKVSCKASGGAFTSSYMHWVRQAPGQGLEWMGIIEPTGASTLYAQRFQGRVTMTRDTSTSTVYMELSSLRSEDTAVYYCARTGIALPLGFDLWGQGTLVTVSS VL: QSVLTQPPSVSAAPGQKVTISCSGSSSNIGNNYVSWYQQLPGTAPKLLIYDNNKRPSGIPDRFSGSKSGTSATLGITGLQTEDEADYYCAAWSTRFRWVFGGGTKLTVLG

>  <measurement_units>
nM

>  <IC50>
6.7

$$$$
>  <binder>
Fab #2 comprising a modified heavy chain constant region (Fab, V domains shown, Human Fab from the Ylanthia library; produced in HKB11 cells; also called Fab #2 mod; HC) VH: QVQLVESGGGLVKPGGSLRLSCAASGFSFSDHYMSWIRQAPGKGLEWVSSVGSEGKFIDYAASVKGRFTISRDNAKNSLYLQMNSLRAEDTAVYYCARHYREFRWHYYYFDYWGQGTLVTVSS VL: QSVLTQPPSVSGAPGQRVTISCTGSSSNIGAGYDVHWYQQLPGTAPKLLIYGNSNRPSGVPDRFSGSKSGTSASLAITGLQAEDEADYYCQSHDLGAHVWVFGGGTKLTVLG

>  <measurement_units>
nM

>  <IC50>
4.3

$$$$

Where do the numbers come from? From patent US20210214435A1.
